# targetOfAssay: UniProtKB P04070
# Sequence (P04070 43-197 limits assumed): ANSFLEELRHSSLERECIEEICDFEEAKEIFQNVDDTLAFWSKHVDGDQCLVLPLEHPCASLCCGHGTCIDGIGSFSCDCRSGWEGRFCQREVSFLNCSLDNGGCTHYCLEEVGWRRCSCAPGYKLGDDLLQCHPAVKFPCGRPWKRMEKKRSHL
# Sequence (P04070 212-461 limits assumed): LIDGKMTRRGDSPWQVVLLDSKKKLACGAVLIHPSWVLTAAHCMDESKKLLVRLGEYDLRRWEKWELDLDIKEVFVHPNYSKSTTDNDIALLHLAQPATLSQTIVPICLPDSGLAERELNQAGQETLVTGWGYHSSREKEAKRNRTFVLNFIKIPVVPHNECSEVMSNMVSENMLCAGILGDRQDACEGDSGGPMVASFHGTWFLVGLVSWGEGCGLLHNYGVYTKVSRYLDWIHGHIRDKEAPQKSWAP
# assayProcedure: Compound was tested for in vitro inhibitory activity against activated protein C
reportedMetric: pIC50
API: returns pIC50 as number; meaning -log10 of concentration in mol/L.

Simply: CC1CCCC(C)N1CCCCCN1C(=O)C(c2cccc(C(=N)N)c2)Oc2ccccc21 (stereo unspecified) , UniProtKB P04070, pIC50 = 4.64

====

# targetOfAssay: Coagulation factor X (Homo sapiens)
# Sequence (P00742 41-179 limits assumed): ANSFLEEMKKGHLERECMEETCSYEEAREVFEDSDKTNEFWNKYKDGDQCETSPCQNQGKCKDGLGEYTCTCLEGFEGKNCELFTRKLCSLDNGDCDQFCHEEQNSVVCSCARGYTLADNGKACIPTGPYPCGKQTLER
# Sequence (P00742 235-488 limits assumed): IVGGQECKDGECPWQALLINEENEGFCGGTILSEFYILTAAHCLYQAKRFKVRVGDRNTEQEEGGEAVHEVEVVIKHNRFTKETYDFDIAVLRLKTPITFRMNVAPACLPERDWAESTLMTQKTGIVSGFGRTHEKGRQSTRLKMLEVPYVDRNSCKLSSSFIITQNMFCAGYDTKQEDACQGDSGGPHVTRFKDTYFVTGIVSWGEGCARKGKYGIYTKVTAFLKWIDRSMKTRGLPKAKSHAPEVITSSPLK
# assayProcedure: Compound was tested for in vitro inhibitory activity against Prothrombinase
reportedMetric: IC50

For record CC1CCCC(C)N1CCCCCN1C(=O)C(c2cccc(C(=N)N)c2)Oc2ccccc21 (stereo unspecified) the listed IC50 is 4 nM

====

# targetOfAssay: Plasminogen (Homo sapiens, UniProt P00747)
# Sequence (P00747 97-580 limits assumed): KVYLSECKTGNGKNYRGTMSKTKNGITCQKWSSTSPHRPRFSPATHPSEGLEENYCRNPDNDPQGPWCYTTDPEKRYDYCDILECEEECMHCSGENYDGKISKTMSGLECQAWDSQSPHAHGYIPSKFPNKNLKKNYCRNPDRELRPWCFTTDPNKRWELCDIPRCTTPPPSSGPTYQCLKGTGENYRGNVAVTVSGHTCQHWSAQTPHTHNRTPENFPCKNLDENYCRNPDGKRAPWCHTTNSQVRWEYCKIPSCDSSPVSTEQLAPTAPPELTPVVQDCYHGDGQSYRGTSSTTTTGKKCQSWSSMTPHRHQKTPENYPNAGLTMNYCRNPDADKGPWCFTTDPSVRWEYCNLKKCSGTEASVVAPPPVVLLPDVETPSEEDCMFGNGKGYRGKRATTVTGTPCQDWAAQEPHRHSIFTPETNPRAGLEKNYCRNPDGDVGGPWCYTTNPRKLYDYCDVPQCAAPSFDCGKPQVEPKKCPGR
# Sequence (P00747 581-810 limits assumed): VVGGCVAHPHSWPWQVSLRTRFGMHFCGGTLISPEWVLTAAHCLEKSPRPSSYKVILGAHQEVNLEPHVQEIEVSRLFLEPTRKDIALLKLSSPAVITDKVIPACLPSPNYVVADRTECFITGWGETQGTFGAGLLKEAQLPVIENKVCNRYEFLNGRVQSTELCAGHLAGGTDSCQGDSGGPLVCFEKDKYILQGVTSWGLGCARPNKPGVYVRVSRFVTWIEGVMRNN
# assayProcedure: Compound was tested for in vitro inhibitory activity against plasmin at 100 uM
reportedMetric: inhibition (%)
Reply numerically in %, unit not repeated.

For record N=C(N)c1cccc(C2Oc3ccccc3N(CCCCCN3CCOCC3)C2=O)c1 (configuration not stated) the listed inhibition is 70

For record CC1CCCC(C)N1CCCCCN1C(=O)C(c2cccc(C(=N)NN3CCOCC3)c2)Oc2ccccc21 (configuration not stated) the listed inhibition is 0

For record CC1CCCC(C)N1CCCCCN1C(=O)C(c2ccccc2)Oc2ccccc21 (configuration not stated) the listed inhibition is 26

For record CC1CCC(C)N1CCCCCN1C(=O)C(c2cccc(C(=N)N)c2)Oc2ccccc21 (configuration not stated) the listed inhibition is 85

For record CC(C)N(CCCCCN1C(=O)C(c2cccc(C(=N)N)c2)Oc2ccccc21)C(C)C (configuration not stated) the listed inhibition is 72

For record C/N=C(/N)c1cccc(C2Oc3ccccc3N(CCCCCN3C(C)CCCC3C)C2=O)c1 (configuration not stated) the listed inhibition is 32

For record N=C(N)c1cccc(C2Oc3ccccc3N(CCCCCN)C2=O)c1 (configuration not stated) the listed inhibition is 64

====

Assignment: determine reported inhibition for the given compounds.
# targetOfAssay: Prothrombin (Homo sapiens, UniProt P00734)
# assayProcedure: Inhibition of thrombin at 100 uM
Reply numerically in %, unit not repeated.

For record COc1ccc(C2Oc3ccccc3N(CCCCCN3C(C)CCCC3C)C2=O)cc1OC (centres undefined) the listed inhibition is 0

For record CC1CCCC(C)N1CCCCCN1C(=O)C(c2cccc(C(=N)S)c2)Oc2ccccc21 (centres undefined) the listed inhibition is 20

For record COc1cc(C2Oc3ccccc3N(CCCCCN3C(C)CCCC3C)C2=O)cc(OC)c1OC (centres undefined) the listed inhibition is 30

For record COc1ccc(C2Oc3ccccc3N(CCCCCN3C(C)CCCC3C)C2=O)cc1 (centres undefined) the listed inhibition is 29

====

# targetOfAssay: Prothrombin (Homo sapiens, UniProt P00734)
reportedMetric: IC50 (µM)
Reply numerically in µM, unit not repeated.

For record CC1CCCC(C)N1CCCCCN1C(=O)C(c2ccc(C(=N)N)cc2)Oc2ccccc21 (stereo not given) the listed IC50 is 1.7

For record CCCCCCN(CCCCCC)CCCCCN1C(=O)C(c2cccc(C(=N)N)c2)Oc2ccccc21 (stereo not given) the listed IC50 is 1.9

For record CC1CCCC(C)N1CCCCN1C(=O)C(c2cccc(C(=N)N)c2)Oc2ccccc21 (stereo not given) the listed IC50 is 1.1

For record CC1CCC(C)N1CCCCCN1C(=O)C(c2cccc(C(=N)N)c2)Oc2ccccc21 (stereo not given) the listed IC50 is 0.91

For record CC(C)N(CCCCCN1C(=O)C(c2cccc(C(=N)N)c2)Oc2ccccc21)C(C)C (stereo not given) the listed IC50 is 1.2
